Origin of values: PubChem BioAssay

Experiment: MELAS cybrid and Rieske KO viability enhancers – cell-based, MELAS cybrids, Rieske KO mouse fibroblasts, CellTiter-Glo, primary screen (AID 1508586);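 further: test concentration not given here; z relative to plate mean and SD of compound and empty wells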
Conditions: Rieske KO mouse fibroblast survival, low glucose, CellTiter-Glo 72 h
test readout: z-score

INSERT INTO results (compound, test_readout, val) VALUES
  ('CCNC(=O)c1cccnc1N1CCN(c2ccc(Cl)cc2)CC1', 'z-score', 2.02),
  ('c1nc(N2CCOCC2)c2[nH]cnc2n1', 'z-score', -0.176),
  ('O=C(O)C(C(=O)O)c1ccccc1', 'z-score', -0.084),
  ('CC(C)(O)C1CC[C@@](C)([C@@H]2C(O)C[C@@]3(C)[C@@H]4CC(OC5OC(CO)C(O)C(O)C5O)[C@H]5C(C)(C)C(OC6OCC(O)C(O)C6O)CC[C@@]56C[C@]46CC[C@]23C)O1 (stereo partly drawn)', 'z-score', 0.478),
  ('CC(C)=CCNc1cc(C(=O)NCc2cn3ccccc3n2)cc(S(=O)(=O)NC(C)C)c1', 'z-score', -0.764),
  ('CCCCNC(=O)[C@@H]1C[C@H](CN2CCOCC2)CN(Cc2ccc(O)cc2)C1', 'z-score', -0.315),
  ('OCCNc1ncnc2oc(-c3ccccc3)c(-c3ccccc3)c12', 'z-score', 7.8),
  ('Cc1ccc(-c2noc([C@@]34CC[C@@](C)(C(=O)O3)C4(C)C)n2)cc1Cl', 'z-score', -1.05),
  ('COc1ccc(NS(=O)(=O)c2sc3ccc(Cl)cc3c2C)cc1N1CCNCC1', 'z-score', -0.0807),
  ('CCOC(=O)c1nn(CC)c2c1CN(C(=O)Cn1nc(-c3ccccc3)c3ccccc3c1=O)CC2', 'z-score', 0.472),
  ('NS(=O)(=O)c1ccc(F)cc1', 'z-score', -0.158),
  ('CCOc1cc(C(CS(C)(=O)=O)N2C(=O)c3cccc(NC(C)=O)c3C2=O)ccc1OC (stereo not drawn)', 'z-score', -0.546),
  ('CN1C[C@H](C(=O)N[C@]2(C)O[C@@]3(O)[C@@H]4CCCN4C(=O)[C@H](Cc4ccccc4)N3C2=O)CC2c3cccc4[nH]cc(c34)C[C@H]21 (stereo partly drawn)', 'z-score', -0.402),
  ('CCOC(=O)C(CCc1ccccc1)NC1CCCN2CCCC(C(=O)O)N2C1=O (stereo not drawn)', 'z-score', -0.0266),
  ('CCN=C1N[C@@H]2C(O)C(O)C(CO)O[C@@H]2S1 (stereo partly drawn)', 'z-score', -0.988),
  ('CN1[C@@H](C[C@H](O)c2ccccc2)CCC[C@H]1CC(=O)c1ccccc1', 'z-score', -0.32),
  ('COC1CN(C(=O)Cn2nc(-c3ccccc3)c3ccccc3c2=O)CC(=O)N(Cc2ccccc2)C1 (stereo not drawn)', 'z-score', 0.0204),
  ('COC(C(=O)N1Cc2[nH]nc(NC(=O)c3ccc(N4CCN(C)CC4)cc3)c2C1)c1ccccc1 (stereo not drawn)', 'z-score', -2.53),
  ('CC1=C(CC(=O)O)c2cc(F)ccc2C1=Cc1ccc(S(C)=O)cc1 (stereo not drawn)', 'z-score', 0.691),
  ('CCc1nc(NC(=O)NC(c2ccccc2)c2ccccc2)nn1C', 'z-score', -0.694),
  ('Cc1cc(-c2cccc3cccnc23)nc(N)n1', 'z-score', -0.264),
  ('CO[C@@H]1[C@@H](OC(N)=O)[C@H](O)[C@H](Oc2ccc3c(O)c(NC(=O)c4ccc(O)c(CC=C(C)C)c4)c(=O)oc3c2C)OC1(C)C', 'z-score', 0.871),
  ('CC(=O)O[C@@]1(C(C)=O)CC[C@H]2[C@@H]3CC(C)C4=CC(=O)CC[C@]4(C)[C@@H]3CC[C@@]21C (stereo partly drawn)', 'z-score', -0.106),
  ('CC(C)(C)NS(=O)(=O)c1cncc(-c2cc(F)c3nc(N)nn3c2)c1', 'z-score', -0.161),
  ('CN(CCn1cccn1)Cc1ccc(-c2nc(-c3cccnc3)cc(=O)[nH]2)cc1', 'z-score', 0.251),
  ('CCc1cnn2c(NCc3ccc[n+]([O-])c3)cc(N3CCCCC3CCO)nc12 (stereo not drawn)', 'z-score', -3.25),
  ('CC=C1NC(=O)C2CSSCCC=CC(CC(=O)NC(C(C)C)C(=O)N2)OC(=O)C(C(C)C)NC1=O (stereo not drawn)', 'z-score', -3.68),
  ('COc1cc2c(cc1O)CC[C@@H]1[C@H]2CC[C@]2(C)C(O)CC[C@@H]12 (stereo partly drawn)', 'z-score', 0.434),
  ('C=C(C)C1CC[C@]2(C(=O)O)CC[C@]3(C)[C@H](CC[C@@H]4[C@@]5(C)CCC(O)C(C)(C)[C@@H]5CC[C@]43C)[C@@H]12 (stereo partly drawn)', 'z-score', -0.141),
  ('COc1cccc(C(=O)N2CCN3C(=O)[C@@H]4C[C@@H](O)CN4C(=O)[C@H]3C2)c1', 'z-score', 0.379),
  ('C=CC1=C(C(=O)O)N2C(=O)[C@H](NC(=O)C(=NO)c3csc(N)n3)[C@H]2SC1', 'z-score', 0.812),
  ('CCC(=O)O[C@@]1(C(=O)CCl)[C@@H](C)C[C@H]2[C@@H]3CCC4=CC(=O)C=C[C@]4(C)[C@]3(F)[C@H](O)C[C@@]21C', 'z-score', -0.656),
  ('Nc1nc(Nc2cccc(Cl)c2)sc1C(=O)c1ccc(F)cc1', 'z-score', 0.109),
  ('CCCn1ncc(NC(=O)Cn2cc(C)c(-c3cccc(Cl)c3)n2)n1', 'z-score', -0.435),
  ('Nc1nc(Cl)nc2c1ncn2C1OC(CO)C(O)C1F (stereo not drawn)', 'z-score', -0.114),
  ('Cc1nc(-c2ccnc(N)n2)cn1Cc1c(Cl)cccc1Cl', 'z-score', 0.727),
  ('CCn1nc(C(=O)N(C)Cc2ccco2)c2c1CCC(N(C)Cc1ccon1)C2 (stereo not drawn)', 'z-score', -0.252),
  ('O=c1c(-c2ccc(O)cc2)coc2cc(OC3OC(CO)C(O)C(O)C3O)ccc12 (stereo not drawn)', 'z-score', -0.345);
